molecular target: Bruno (UniProt O02374 1-604); experiment: EMSA; 50 mM Tris pH 7.5, 150 mM NaCl, 2 mM DTT, 0.1 mg/ul BSA (so in the source), 0.001% Igepal CA-630, dIdC and yeast tRNA; 20 min at RT; 6% native PAGE at 4 C; settings: protein: recombinant; tags: His (pETM-82; purified on His GraviTrap); label: 5'-32P
Sequence (O02374 entry or part of it): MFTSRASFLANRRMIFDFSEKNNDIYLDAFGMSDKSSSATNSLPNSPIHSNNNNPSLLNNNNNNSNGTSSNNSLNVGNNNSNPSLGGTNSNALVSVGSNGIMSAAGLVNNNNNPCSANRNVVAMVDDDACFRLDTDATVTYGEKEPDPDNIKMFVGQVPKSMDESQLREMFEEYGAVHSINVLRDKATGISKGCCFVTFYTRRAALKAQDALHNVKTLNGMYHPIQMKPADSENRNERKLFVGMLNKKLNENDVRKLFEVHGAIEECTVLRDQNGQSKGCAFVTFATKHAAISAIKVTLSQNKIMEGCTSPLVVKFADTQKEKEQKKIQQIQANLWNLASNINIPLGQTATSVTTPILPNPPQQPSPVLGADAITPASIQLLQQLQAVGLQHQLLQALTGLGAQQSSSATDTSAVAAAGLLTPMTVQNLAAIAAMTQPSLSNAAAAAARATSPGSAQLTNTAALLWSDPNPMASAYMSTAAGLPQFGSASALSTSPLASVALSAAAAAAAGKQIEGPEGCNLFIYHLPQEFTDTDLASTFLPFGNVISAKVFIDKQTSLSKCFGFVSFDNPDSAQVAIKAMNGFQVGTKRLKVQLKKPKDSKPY
Experimental endpoint: binding result

1) UUUUUUAAUU (ssRNA) [pgc 3'UTR PRE mutant UUUU] | no binding
2) UUUGUAAAUU (ssRNA) [pgc 3'UTR PRE/BRE] | binds
3) CUUGAAUGUAUGUUAAUUGUAUGUAUUGAU (ssRNA) [osk 3'UTR BRE] | binds
4) UUUCUCAAUU (ssRNA) [pgc 3'UTR PRE mutant UCUC] | no binding
